molecular target: High affinity nerve growth factor receptor (Homo sapiens) (UniProt P04629); conditions: at 1 µM;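 note: each value is the mean percent inhibition of TRKA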
Sequence (P04629 33-796 limits assumed): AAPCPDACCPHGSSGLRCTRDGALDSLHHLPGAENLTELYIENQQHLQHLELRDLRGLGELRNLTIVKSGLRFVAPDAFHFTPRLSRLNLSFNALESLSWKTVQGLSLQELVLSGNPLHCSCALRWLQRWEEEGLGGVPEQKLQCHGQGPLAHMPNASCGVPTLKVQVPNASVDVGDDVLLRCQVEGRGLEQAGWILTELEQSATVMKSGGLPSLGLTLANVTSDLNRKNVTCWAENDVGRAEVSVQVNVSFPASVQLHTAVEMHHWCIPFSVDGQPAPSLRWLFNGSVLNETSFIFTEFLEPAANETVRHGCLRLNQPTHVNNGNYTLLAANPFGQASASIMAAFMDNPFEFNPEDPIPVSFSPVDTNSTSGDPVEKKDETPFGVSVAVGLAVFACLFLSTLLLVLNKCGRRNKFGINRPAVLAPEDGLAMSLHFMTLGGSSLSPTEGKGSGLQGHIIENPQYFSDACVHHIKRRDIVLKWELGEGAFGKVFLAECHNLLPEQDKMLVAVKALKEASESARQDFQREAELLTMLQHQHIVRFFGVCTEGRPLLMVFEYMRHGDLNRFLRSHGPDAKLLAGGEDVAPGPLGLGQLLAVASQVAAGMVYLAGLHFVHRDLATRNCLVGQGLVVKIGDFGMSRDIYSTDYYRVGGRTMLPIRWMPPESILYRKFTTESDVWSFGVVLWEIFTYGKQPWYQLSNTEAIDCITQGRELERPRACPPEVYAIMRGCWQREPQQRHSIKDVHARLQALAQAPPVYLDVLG
readout type: inhibition (%)

item smiles	endpoint result
O=C(Nc1n[nH]c2cc(-c3ccc(F)cc3)ccc12)C1CC1	4.23
COc1ccc(-c2cc(-c3c[nH]nc3-c3ccccn3)ccn2)cc1	3.12
CCn1cc(-c2ccnc3[nH]ccc23)c(-c2cccc(NC(=O)Nc3ccc(OCc4ccccc4)cc3)c2)n1	-2.6
[O-][S+]1CCN(Cc2ccc(-c3ccc4ncnc(Nc5ccc(OCc6cccc(F)c6)c(Cl)c5)c4c3)o2)CC1	3.26
c1ccc(COc2ccc(Nc3ncnc4ccc(-c5ccco5)cc34)cc2)cc1	-2.33
NS(=O)(=O)c1ccc(Nc2ncc(-c3ccccc3)o2)cc1	8.51
CC(=O)NCc1cccc(C#Cc2cncnc2Nc2ccc(OCc3cccc(F)c3)c(Cl)c2)c1	1.37
CC(=O)Nc1cccc(C#Cc2cncnc2Nc2ccc(OCc3cccc(F)c3)c(Cl)c2)c1	-0.49
CN1CCC(n2cnc(-c3ccc(F)cc3)c2-c2ccnc(Nc3ccccc3)n2)CC1	1.74
